Tested on: MDA-MB-435
Assay: NCI tumour cell line growth inhibition, 48 h
Where a SMILES comes first, the peptide text is derived from it. [ ]: non-standard residue; d: D form. The star is where a group is joined. ξ: configuration not given here. ξD = NC(CC(=O)O)C(=O)O; Boc = CC(C)(C)OC(=O)*; Aib = CC(C)(N)C(=O)O; OBn = c1ccc(CO*)cc1
quantity measured: TGI

In [3]: df
Out[3]:
                                   compound    result
0  C[N+]1(C(CO)Cc2c[nH]c3ccccc23)Cc2ccccc2C1 (centres undefined)  > 100 µM
1  Fc1cc2nc3n(c2cc1F)C(c1c(F)cccc1F)SC3 (centres undefined)  > 100 µM
2  COC(=O)CCc1n(Cc2ccc3ccccc3c2)c2ccccc2[n+]1Cc1ccc2ccccc2c1    1.8 µM

Give me TGI for each of these compounds, listed below.
1. O=c1c2ccccc2n2c(-c3ccccc3O)nnc2n1-c1ccccc1
2. CC1(C)/C(=N\O)C2(OS(=O)(=O)C(F)(F)F)CCC1C2 (centres undefined)
3. CC(C)(C)OC(=O)NC(CC(=O)OCc1ccccc1)C(=O)NC(C)(C)C(N)=O (centres undefined) (Boc-[ξD](OBn)-[Aib]-NH2)
4. O=C(COc1ccccc1)NNc1ccccc1
5. ClCc1ccccc1Cn1cnc2nc(Cl)nc(Cl)c21
6. c1ccc(/C(=N\Nc2nc3ccccc3[nH]2)c2ccccn2)cc1
7. Cc1n[nH]c(=O)n1C1CC1
8. CC(NNC(=O)c1ccncc1)c1ccccc1 (centres undefined)

1: > 100 µM; 2: > 100 µM; 3: > 100 µM; 4: > 300 µM; 5: 13.2 µM; 6: 13.7 µM; 7: > 100 µM; 8: > 100 µM

Quick one: give me TGI for each item below, same order please.
1. O=C(Nc1ccc(I)cc1F)c1cc(Br)ccc1O
2. CCCN(CCC)c1ccc(/C=N/NC(=O)c2cccnc2)c(C)c1
3. COc1ccc(C2(CC(C)C)CCNC2)cc1OC (centres undefined)
4. CC1(C)C(=O)/C=C\C(=O)C(C)(C)C2=CC=C(O2)C(C)(C)C(=O)C(Br)C(Br)C(=O)C(C)(C)C2=CC=C1O2 (centres undefined)
5. O=C(CCN1CCCCC1)Nc1ccc2c(c1)C(=O)c1ccc(NC(=O)CCN3CCCCC3)cc1C2=O
6. COC(=O)[C@H](Cc1cn(C)cn1)NC(=O)[C@H](CC(C)C)NC(=O)Nc1cc(C(F)(F)F)cc(C(F)(F)F)c1
7. COc1ccc(OC)c(N2CC(O)=C(c3nc4ccccc4s3)C2=N)c1
8. CC1(C)CN(CC(=O)O)CC(Cc2ccc(OCC(=O)O)cc2)N(CC(=O)O)CC(C)(C)SS1 (centres undefined)

4.64 µM
20.8 µM
> 100 µM
> 100 µM
3.25 µM
> 10 µM
> 100 µM
> 100 µM

----------
Tested on: SF-539 CNS
Test: NCI tumour cell line growth inhibition, 48 h
Please go through the items and note down their TGI.

Some solved cases for reference:
In [3]: df
Out[3]:
                                   compound      system    result
0  O=C1CCC2(c3ccc(Cl)cc3)Nc3ccccc3N12 (stereo not given)  SF-539 CNS  > 100 µM
1  CC(C)CC(=O)CC(C)[C@]1(CCCOCc2ccccc2)C(=O)N2CCC3(C[C@@]24CCC[C@H]41)OCCO3 (stereo not given in full)  SF-539 CNS   > 10 µM

Consider the following items and state reported TGI for each.
1. CC(=O)OC(C(=O)O)C(OC(C)=O)C(OC(C)=O)C(OC(C)=O)C(=O)O (stereo not given)
2. Nc1nc(-c2cccnc2)cc(-c2cc(-c3cccnc3)nc(N)n2)n1
3. Nc1nc(Cl)c(N)c(NCC2(CO)CCC(OCc3ccccc3)C2)n1 (stereo not given)

1. > 100 µM
2. > 100 µM
3. > 100 µM

----------
Test system: M14 melanoma
Assay: NCI tumour cell line growth inhibition, 48 h
quantity measured: TGI

Below is a list of compounds. For each, state its recorded TGI.
1. NC(=O)N/N=C\CC(O)(C(F)(F)Cl)C(F)(F)Cl
2. CC(C)CCN(CCC(C)C)CC(=O)Nc1ccc(S(=O)(=O)c2ccc(NC(=O)CN(CCC(C)C)CCC(C)C)cc2)cc1

["> 10 µM", "4.01 µM"]

----------
System: PC-3 prostate
Test: NCI tumour cell line growth inhibition, 48 h
quantity measured: TGI

# annotated cases, reported TGI shown
compound	TGI
O=C(/C=C/c1ccc([N+](=O)[O-])cc1)N1CCN(CCOC(c2ccc(F)cc2)c2ccc(F)cc2)CC1	> 100 µM
N#CC(O)CCOCc1ccccc1 (stereo not drawn)	> 100 µM

Attention now shifts to the item below.
Could you share which TGI value was measured for `Cn1cc(NC(=O)Nc2cc(C(=O)Nc3cc(C(=O)Nc4ccc5cc(S(=O)(=O)O)cc(S(=O)(=O)O)c5c4)n(C)c3)n(C)c2)cc1C(=O)Nc1cc(C(=O)Nc2ccc3cc(S(=O)(=O)O)cc(S(=O)(=O)O)c3c2)n(C)c1` ?
> 100 µM

----------
System: ACHN renal
Test: NCI tumour cell line growth inhibition, 48 h
For each entry below, report its TGI value.

Guide cases for TGI, answers given:
                                   compound    result
0                          N#CC1(CCCI)CCCC1  > 100 µM
1     O=Cc1ccc(-c2ccc(-c3nc4ccccc4s3)cc2)o1  > 100 µM
2  CCOC(=O)C1CC(=O)C=C2CCCCC21 (centres undefined)  > 100 µM
3       FC(F)(F)c1ccc2c(-c3cc[nH]c3)ccnc2c1  > 100 µM
4  CC1(C)/C(=N\O)C2(OS(=O)(=O)C(F)(F)F)CCC1C2 (centres undefined)  > 100 µM
5        O=C1c2ccccc2CC12Cc1cc3c(cc1C2)CCC3  > 100 µM
6        O=C1c2cc3c(cc2CC12Cc1ccccc1C2)CCC3   97.7 µM
7  OCc1ccc(-c2nc(-c3ccc4c(c3)OCO4)c(-c3ccccn3)[nH]2)cc1   > 25 µM
8  C[N+]1(C(CO)Cc2c[nH]c3ccccc23)Cc2ccccc2C1 (centres undefined)  > 100 µM
9  Nc1ccc(Oc2ccc(C34CC5CC(C3)CC(c3ccc(Oc6ccc(N)cc6C(F)(F)F)cc3)(C5)C4)cc2)c(C(F)(F)F)c1  > 100 µM

Look up TGI for the entries below, preserving their order.
1. COc1cc(CSc2nc3ccc(Cl)cc3c(=O)n2Cc2ccccc2)cc(OC)c1OC
2. COc1ccc(O)c(/C=N\Nc2ccccc2)c1

1. 34.2 µM
2. > 100 µM

Go through the list and state TGI for each entry.
1. COc1cc(-n2cc(-c3ccc(Cl)cc3)n(-c3ccccc3)c2=O)cc(OC)c1OC
2. O=S(=O)(c1ccccc1)C1CC(c2nc3ccccc3[nH]2)=NO1 (centres undefined)
3. COc1cc2c3c(n(CCCN=[N+]=[N-])c(=O)c2cc1OC)-c1ccccc1C3=O
4. CCc1cc2c(c(OCC(F)(F)F)c(C(=O)NC3CCN(C(=O)CO)CC3)n2C)c(=O)n1CC(=O)c1ccccc1

["> 100 µM", "> 100 µM", "4.65 µM", "> 100 µM"]

Dear colleague, could you send me TGI for each of the items below? Thanks.
1. c1cc(OCCN2CCCC2)ccc1CNc1ccc2nc(CCC3CCCCC3)[nH]c2c1
2. C/C(=N\O)c1ccc(OCc2cc(C(F)(F)F)cc(C(F)(F)F)c2)cc1
3. Oc1ccc(N=Nc2ccc(Br)cc2)c(O)c1

1: 5.99 µM; 2: > 100 µM; 3: 37.5 µM

----------
System: SW-620 colon
Assay: NCI tumour cell line growth inhibition, 48 h
Would you mind telling me the reported TGI of each entry?

Example results:
In [3]: df
Out[3]:
                                   compound        system    result
0  CN(C)c1ccc(N=C2N=C(Nc3ccccc3)C(=Nc3ccccc3)S2)cc1  SW-620 colon  > 100 µM
1  CC(C)CC(=O)CC(C)[C@]1(CCCOCc2ccccc2)C(=O)N2CCC3(C[C@@]24CCC[C@H]41)OCCO3 (some centres undefined)  SW-620 colon   > 10 µM
2  C[N+]1(C(CO)Cc2c[nH]c3ccccc23)Cc2ccccc2C1 (centres undefined)  SW-620 colon  > 100 µM

Name the recorded TGI for `Cc1cc(C)c(/C=C2\C(=O)Nc3ccccc32)[nH]1` .
> 100 µM

----------
System: NCI/ADR-RES ovarian
Test: NCI tumour cell line growth inhibition, 48 h
quantity measured: TGI

// below: answered molecules
>>> print(df.to_string())
                                   molecule  quantity_measured    result
0  O=C(NCCCCCCCCNC(=O)Nc1cccc2ccccc12)Nc1cccc2ccccc12                TGI  > 100 µM
1  CC(=O)OC(C(=O)O)C(OC(C)=O)C(OC(C)=O)C(OC(C)=O)C(=O)O (configuration not stated)                TGI  > 100 µM
2    Cc1[nH]c2ncn3[nH]c(=S)nc3c2c1Cc1ccccc1                TGI  > 100 µM
3      NCCCN(CCCCN(CCCN)Cc1ccccc1)Cc1ccccc1                TGI  > 100 µM
4  c1cc(OCCN2CCCC2)ccc1CNc1ccc2nc(CCC3CCCCC3)[nH]c2c1                TGI   10.7 µM
5  COC(=O)CCc1n(Cc2ccc3ccccc3c2)c2ccccc2[n+]1Cc1ccc2ccccc2c1                TGI   65.1 µM

Next item in the queue.
Need TGI of `COc1cc2c3c(n(CCCN=[N+]=[N-])c(=O)c2cc1OC)-c1ccc(F)cc1C3=O` , thanks.
> 100 µM
